- Tested on: Pseudomonas aeruginosa
- Assay Remarks: Antibacterial activity against Pseudomonas aeruginosa ATCC 27853 after 18 hrs by twofold serial agar dilution technique
- Type: functional
- Test Context: ATCC 27853, 18 h
Endpoint Name: MIC

Examples with answers:
C=CCNC(=O)[C@H](CC)[C@H]1CC[C@H](C)[C@H]([C@@H](C)[C@H](O)[C@H](C)C(=O)[C@H](CC)[C@H]2O[C@]3(C=C[C@@H](O)[C@]4(CC[C@@](C)([C@H]5CC[C@](O)(CC)[C@H](C)O5)O4)O3)[C@H](C)C[C@@H]2C)O1 [SALINOMYCIN ALLYL AMIDE]    ≥ 256 µg/mL
CCCCNC(=O)[C@H](CC)[C@H]1CC[C@H](C)[C@H]([C@@H](C)[C@H](O)[C@H](C)C(=O)[C@H](CC)[C@H]2O[C@]3(C=C[C@@H](O)[C@]4(CC[C@@](C)([C@H]5CC[C@](O)(CC)[C@H](C)O5)O4)O3)[C@H](C)C[C@@H]2C)O1    ≥ 256 µg/mL

Now, please, on to the next compound.
Task: Given the entry CC[C@@H](C(=O)[C@@H](C)[C@@H](O)[C@H](C)[C@@H]1O[C@@H]([C@@H](CC)C(=O)NCc2ccccc2)CC[C@@H]1C)[C@H]1O[C@]2(C=C[C@@H](O)[C@]3(CC[C@@](C)([C@H]4CC[C@](O)(CC)[C@H](C)O4)O3)O2)[C@H](C)C[C@@H]1C , report its measured MIC.
Result: ≥ 256 µg/mL

Source listed as ChEMBL document CHEMBL2046376.
